Where do these numbers come from? They come from paper PMC10238501.

Target: Gal4LOV(SK22) (Gal4 DBD with AsLOV2 inserted between Ser22 and Lys23, no VP64) (/ Avena sativa (chimera)) (UniProt P04386)
Test: fluorescence anisotropy
Conditions: dark; 20 mM HEPES pH 7.5, 50 mM NaCl, 50 ug/mL BSA, 5% Ficoll 400; 2 nM DNA; temperature not stated
measured-quantity: pKd
To interpret pKd, take it as minus log10 of a concentration measured in moles per litre.

Lookup: I would be grateful if you could share the reported pKd for TCTTCGGAGGGCTGTCACCCGAATATA (double strand) [1xUAS 27-bp DNA] .
Found: 8.19

====

Target: Gal4LOV(SK22) C450V (/ Avena sativa (chimera))
Assay: fluorescence anisotropy
Settings: dark; 20 mM HEPES pH 7.5, 50 mM NaCl, 50 ug/mL BSA, 5% Ficoll 400; 2 nM DNA; temperature not stated
measured-quantity: pKd
Scale: negative log10 of molar concentration, which is what pKd denotes.

Lookup: What does the data say about its pKd? Entry: TCTTCGGAGGGCTGTCACCCGAATATA (double strand) [1xUAS 27-bp DNA]
Found: 8.06
